target: T1, Midline T-box domain (MidTbx) (Drosophila melanogaster, UniProt Q8SYY8 171-393)
T1 sequence: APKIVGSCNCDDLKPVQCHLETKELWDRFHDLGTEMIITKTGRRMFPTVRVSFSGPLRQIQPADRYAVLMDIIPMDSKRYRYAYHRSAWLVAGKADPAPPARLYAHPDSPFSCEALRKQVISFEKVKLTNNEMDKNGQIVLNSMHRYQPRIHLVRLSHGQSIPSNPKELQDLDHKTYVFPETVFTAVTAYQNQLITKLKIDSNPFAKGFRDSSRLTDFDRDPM
testMethodNotes: EMSA; 20 mM HEPES pH 7.9, 100 mM KCl, 0.2 mM EDTA, 0.2 mM EGTA, 20% glycerol, 0.1% NP40, 0.5 mM DTT, 10 mg/ml BSA, 8 ng/ul poly(dI-dC); room temperature 1 h; 15 fmol
studyConditions: protein: recombinant; tags: C-terminal 6xHis (pET-21a); label: 5' biotin; blunt

| binder | binding result |
| --- | --- |
| mid.Najand Region 2 (dsDNA) DNA 1: CAAGGTGTCAAGGAA DNA 2: TTCCTTGACACCTTG | binds |
| mid.Najand (dsDNA) DNA 1: CAAGGTGTCAAGGCG DNA 2: CGCCTTGACACCTTG | binds |
| mid.Najand Region 1 (dsDNA) DNA 1: CACCCCCCCAAGGCG DNA 2: CGCCTTGGGGGGGTG | no binding |
| mid.Liu (dsDNA) DNA 1: GGAAGTAGGTCAAG DNA 2: CTTGACCTACTTCC | no binding |
| Tbx20.MacIndoe (dsDNA) DNA 1: GGAGGTGTGAGGCGA DNA 2: TCGCCTCACACCTCC | binds |
